molecular target: acetylcholine receptor; assay: SPR, AchR immobilised on CM5 chip, peptide at 10 uM
observable: Binding affinity (RU)
Express it in RU; write the number only.

INSERT INTO assay_data (binder, scale_unit, endpoint_result) VALUES
  ('KDDAR [5mer-1197]', 'RU', 24),
  ('KTKIR [5mer-861]', 'RU', 20);

Query :: What value of Binding affinity (RU) has been recorded for this entry: KYHPR [5mer-864]
Result :: 25
